# Assay Comment: protein stability index of a GFP-peptide fusion (yeast GPS) (PSI 1-4); higher = more stable; sorted into four equal gates, so the index is relative within each strain
# Stated Conditions: san1∆
Reported protein stability index is given for each of the following sequences.
Answer field: number only, no words.

PIPIAVLDSYTPSTNEP [FAS1] :: 2.69
TQDDFTTSVDVMLKGIV [SRP54] :: 1.67

Recorded protein stability index for LPLTEHKSPNLSLMLES [SRB4] , please? 2.39

Recorded protein stability index for VGLKNYDPQRDKRFSGS [RPL1A] , please? 3

Recorded protein stability index for KLYFQLFLNTGCLSVLY [SRP68] , please? 1.19

Recorded protein stability index for VVESVGAEVDEARINEL [RPP2B] , please? 3.35

Recorded protein stability index for LVRSIIAFDDLIENKIQ [RPN8] , please? 2.45

Recorded protein stability index for FKCQEKDKGVYVVTSDE [SIR2] , please? 3.27

Recorded protein stability index for EPFFLVTKITDMLLHKY [SRB8] , please? 2.88

Measured values drawn from the supplement of paper PMC9732359 for this set.
